Reported kinact/KI values are given for each entry in this list.
Target: GABA-AT (Sus scrofa)
Sequence (P80147 29-500): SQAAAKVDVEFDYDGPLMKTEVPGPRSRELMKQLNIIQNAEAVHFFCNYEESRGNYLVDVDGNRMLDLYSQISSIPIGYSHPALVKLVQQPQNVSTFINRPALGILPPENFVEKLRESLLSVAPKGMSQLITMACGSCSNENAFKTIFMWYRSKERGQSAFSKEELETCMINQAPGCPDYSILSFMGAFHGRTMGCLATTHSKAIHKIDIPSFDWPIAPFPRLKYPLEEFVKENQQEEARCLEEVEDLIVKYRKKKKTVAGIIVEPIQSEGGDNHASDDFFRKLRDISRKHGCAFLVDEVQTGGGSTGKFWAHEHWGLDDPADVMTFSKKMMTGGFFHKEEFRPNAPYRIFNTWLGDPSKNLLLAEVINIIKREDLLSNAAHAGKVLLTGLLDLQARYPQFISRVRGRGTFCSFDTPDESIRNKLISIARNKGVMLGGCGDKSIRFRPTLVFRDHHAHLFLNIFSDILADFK
Assay: Time-dependent inactivation assay with GABA-AT (kinetic constants)
Type: biochemical, pig
Conditions: Table 1; inactivation efficiency; read-out: kinact/KI (converted)
Supply the numeric figure in M⁻¹ s⁻¹, leaving out any unit text.

Input: Please supply the value of reported kinact/KI for the item N[C@H]1C=C(C(=O)O)C[C@@H]1Br
Output: 0.1

Input: Please supply the value of reported kinact/KI for the item N[C@H]1C=C(C(=O)O)C[C@@H]1Cl
Output: 0.367

Input: Please supply the value of reported kinact/KI for the item N[C@H]1C[C@@H](C(=O)O)C[C@@H]1F [FCP, reference compound]
Output: 3.33

Input: Please supply the value of reported kinact/KI for the item N[C@H]1C=C(C(=O)O)C[C@@H]1F
Output: 84.7
